- Test system: OCI-LY3
- experiment-description: Cell viability assay, OCI-LY3
- Type: cell-based
- experimental-conditions: OCI-LY3, ABC-DLBCL, EZH2 Wildtype, 144 hours; read-out: IC50 GSK126
observed-property: pIC50
Scale note: pIC50 = -log10(concentration in M).

Entry CC[C@H](C)n1cc(C)c2c(C(=O)NCc3c(C)cc(C)[nH]c3=O)cc(-c3ccc(N4CCNCC4)nc3)cc21 has what pIC50?
5.14

---

- System: OCI-LY7
- experiment-description: Cell viability assay, OCI-LY7
- Type: cell-based
- experimental-conditions: Homo sapiens, OCI-Ly7, 72 h, read-out: IC50 Romidespin
- Protocol: OCI-LY1, SU-DHL-2, SU-DHL-6, Pfeiffer, Farage, Toledo, Riva, HBL-1, Jeko-1, Z-138, H9, and HH were obtained from ATCC. OCI-LY7, OCI-LY10, SU-DHL-10 and OCI-LY3 were obtained from DSMZ. PF382, and P12 were a gift from the laboratory of Adolfo Fernando. TLOM-1 and MT-1 were obtained from Kyoto University; and MT-2 was obtained from Memorial Sloan Kettering Cancer Center. […] Synergy was assessed by excess over bliss (EOB). […]
observed-property: IC50

Look at this molecule and give its reported IC50. C/C=C1\NC(=O)[C@H]2CSSCC/C=C/[C@H](CC(=O)N[C@H](C(C)C)C(=O)N2)OC(=O)[C@H](C(C)C)NC1=O [romidepsin]
1.5 nM
